The measurements presented in this section are drawn from the supplement of paper PMC8967900.

Tested on: MHH-CALL-2;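 further: ALL cell lines in 384-well plates, five doses spanning 10,000-fold, each plate scaled between vehicle and 100 µmol/L benzalkonium chloride controls, sDSS an adapted area-under-curve metric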
Test: selective drug sensitivity score (sDSS, relative to normal bone marrow) (sDSS (score)); higher = more potent and effective on the cell line relative to normal bone marrow cells
Settings: 72 h
EXPERIMENTAL_READOUT: selective drug sensitivity score
I only need the number, thanks.

These recorded examples may help you get a feel for the data.
>>> reading("CCN(CCO)CCCOc1ccc2c(Nc3cc(CC(=O)Nc4cccc(F)c4)[nH]n3)ncnc2c1 [AZD1152-HQPA] (top concentration 1000 nM)")
6.64
>>> reading("CC[C@@H]1[C@H](F)C(=O)N[C@@H]1COc1nccc2cc(C(N)=O)c(OC)cc12 (top concentration 10000 nM)")
-0.22
>>> reading("Cc1nc2cccc(N)c2c(=O)n1C1CCC(=O)NC1=O (centres undefined) [Avadomide (CC122)] (top concentration 10000 nM)")
0

Lab note: next compound to report on.
Output measured selective drug sensitivity score for this item: COc1cc2c(cc1-c1c(C)noc1C)ncc1[nH]c(=O)n([C@H](C)c3ccccn3)c12 [I-BET151] (top concentration 10000 nM) 6.96
